Measured values drawn from PubChem BioAssay (NCI) for this set.

# Test system: RPMI-8226 leukemia
# protocol-details: NCI-60 one-dose screen, 48 h
# applied-conditions: 10 µM unless noted
Compounds without any hit were thinned out: in the full panel of roughly 83,000, 20% have a hit. Activity calls are given as the source filed them. How the source made its calls: active means growth percent below 10; inactive means the rest.
Respond using exactly one of the listed classes: true (1) for active, false (0) for inactive

Past entries and their recorded results:
COc1ccc(NC(=O)c2cccc(C3CCc4c(cc(OC)c(OC)c4OC)O3)c2)cc1 (stereo unspecified) | true (1)
Nc1n[nH]c2ccc([C@@H]3Nc4cc5[nH]ncc5cc4[C@H]4C5CCC(C5)[C@@H]34)cc12 (stereo partly specified) | true (1)
O=C(N/N=C/c1ccc([N+](=O)[O-])cc1)c1ccc2nc(-c3ccc(Cl)cc3)[nH]c2c1 | false (0)
O=C1C(Cl)=C(NCCN2CCOCC2)C(=O)c2ncccc21 | false (0)
CCCCCCCCNc1cc2c3c(c1)CCCN3CCC2 | false (0)

Next:
Called result for "N#CCC1=NC(c2cccs2)=Nc2ccccc2S1"
false (0)

---

# System: SR leukemia
# protocol-details: NCI-60 one-dose screen, 48 h (100 = growth as untreated, 0 = no growth, -100 = all killed)
# applied-conditions: 10 µM unless noted
This is part of a sample that, as a whole, favours compounds with a hit. Of some 83,000 tested, about 20% had one in any assay. Calls of active or inactive are those of the source. How the source made its calls: active means growth percent below 10; inactive means the rest.
readout-kind: growth

Completed entries (count: 4):
CC1(C)CC[C@]2(C(=O)N3CCOCC3)CC[C@]3(C)C(=CC[C@@H]4[C@@]5(C)C/C(=C/c6ccncc6)C(=O)C(C)(C)[C@@H]5CC[C@]43C)[C@@H]2C1 | -31.3% (active)
CCN(CC)CCOc1nc2c3ccc(Cl)cc3nn2c2ccccc12 | 5.43% (active)
COc1ccc(-c2cc(C(=O)N3N=C(c4ccc(N)cc4)CC3c3ccccc3)c3ccccc3n2)cc1 (stereo not given) | 22.6% (inactive)
NNC(=S)N/N=C/c1ccccn1 | 5.56% (active)

Okay, now this compound:
Which growth is listed for "O=C(CBr)CN1C(=O)c2ccccc2C1=O" ?
98.9% (inactive)

---

Listed next: entries and their corresponding growth.
# Tested on: SF-268 CNS
# protocol-details: NCI-60 one-dose screen, 48 h (100 = growth as untreated, 0 = no growth, -100 = all killed)
# applied-conditions: 10 µM unless noted
# Experimental: Cells are grown in 96 well plates and exposed to the test compound for 48 hours. Compounds are tested at a single concentration, which is 10^-5 M for most compounds. The reported endpoint is percent growth (GI% or GIPRCNT), where numbers from 0 - 100% represent growth inhibition, and numbers from -100% - 0 represent cell death. For example, a value of 40 represents 60% growth inhibition. A value of 0 means no net growth occurred over the course of the experiment. […]
This is part of a sample that, as a whole, favours compounds with a hit. Of some 83,000 tested, about 20% had one in any assay.
Numbers only here, please. The scale is %.

Completed entries (count: 5):
CC(=O)c1c(Nc2ccc(F)c(F)c2F)[nH]c2c(F)cc(F)cc2c1=O | 17.9
CN1C(=O)/C(=C/c2ccc(C(=O)Nc3ncc(Cc4ccc(F)cc4)s3)cc2)SC1=S | 49.1
CCC(C)Nc1ccc(NC(C)CC)cc1 (stereo unspecified) | 96.6
CCN1C(=O)N(CC)C2C1NN=C1SCC(=O)N12 (stereo unspecified) | 98.6
O=C1/C(=C/c2ccccc2)CN(C(=O)c2cccnc2)C/C1=C\c1ccccc1 | 17.4

Okay, now this compound:
Which growth is listed for "Clc1ccc(-c2cn3ccsc3n2)c(Cl)c1Cl" ?
102

---

# System: SNB-75 CNS
# protocol-details: NCI-60 one-dose screen, 48 h (100 = growth as untreated, 0 = no growth, -100 = all killed)
# applied-conditions: 10 µM unless noted
# Experimental: Growth inhibition of the SNB-75 human tumor cell line is measured as a screen for anti-cancer activity. Cells are grown in 96 well plates and exposed to the test compound for 48 hours. Compounds are tested at a single concentration, which is 10^-5 M for most compounds. The reported endpoint is percent growth (GI% or GIPRCNT), where numbers from 0 - 100% represent growth inhibition, and numbers from -100% - 0 represent cell death. For example, a value of 40 represents 60% growth inhibition. […]
The panel holds about 83,000 compounds, 20% with a hit somewhere; the sample as a whole holds those more often.
Listed next: entries and their corresponding growth.
Numbers only here, please. The scale is %.

CN1CCN(C(=O)c2cc(-c3ccc4ncnc(N5CCc6cc(F)c(Cl)cc65)c4c3)cnc2N)CC1 | -35.3
O=C(CCl)Nc1ccc2c(Nc3cc(O)ccc3Cl)ncnc2c1 | -96.7

Which growth is listed for "CC1(C)OC(=O)C(=Cc2cccc(Br)c2)C(=O)O1" ?
94.4

Which growth is listed for O=C(O)C1CN(c2cccc(Cl)c2)N(c2cccc(Cl)c2)C1=O (stereo not given) ?
76.9

Which growth is listed for "Cc1cc(C(=O)Nc2cc(Nc3ncccc3-c3ncnc4nc[nH]c34)ccc2F)cc(C(F)(F)F)c1" ?
59.4

---

# Tested on: OVCAR-3 ovarian
# protocol-details: NCI-60 one-dose screen, 48 h (100 = growth as untreated, 0 = no growth, -100 = all killed)
# applied-conditions: 10 µM unless noted
The panel holds about 83,000 compounds, 20% with a hit somewhere; the sample as a whole holds those more often.
Rule: growth under 70% gives criterion not met, otherwise criterion met.

Past entries and their recorded results:
COC(=O)/C=C1/SC(=Nc2cccc(Cl)c2)N(CCc2c[nH]c3ccc(O)cc23)C1=O | criterion not met
Nc1nc(C(=O)N/N=C/c2ccc(N3CCOCC3)cc2)nn1-c1ccc(S(N)(=O)=O)cc1 | criterion met
Cc1nn(-c2ccccc2)c(/N=C/N(C)C)c1/C=C/C(=O)c1ccc(Cl)cc1 | criterion met
CCCCCCCCCCCCCCCCCCOc1ccccc1CC(=O)OCC[N+]1(C)CCOCC1 | criterion not met

Given the entry "Cc1ccc(C)c(-n2c(-c3ccc(Br)cc3)csc2=NC(=O)c2ccccc2F)c1" , answer whether its growth meets or surpasses 70%.
criterion met

Given the entry "N#Cc1c(-c2cccc([N+](=O)[O-])c2)cc(-c2ccc(Nc3nc(Nc4ccc(F)cc4)nc(Nc4ccc(F)cc4)n3)cc2)nc1N" , answer whether its growth meets or surpasses 70%.
criterion met

Given the entry C[Se]C(=O)CC1=C2C=C(F)C=CC2/C(=C\c2ccc(S(C)=O)cc2)C1C (centres undefined) , answer whether its growth meets or surpasses 70%.
criterion not met

Given the entry "CNCc1cccc2c1OCCOCCN(C)C(=O)CN(C)S(=O)(=O)c1ccc(cc1)-c1cnc(N)c(n1)C(=O)N2" , answer whether its growth meets or surpasses 70%.
criterion not met

---

# Tested on: RPMI-8226 leukemia
# protocol-details: NCI-60 one-dose screen, 48 h
# applied-conditions: 10 µM unless noted
This is part of a sample that, as a whole, favours compounds with a hit. Of some 83,000 tested, about 20% had one in any assay. Activity calls are given as the source filed them. How the source made its calls: active means growth percent below 10; inactive means the rest.
Respond using exactly one of the listed classes: True for active, False for inactive

Past entries and their recorded results:
CCCCn1sc(=O)n(Cc2ccc(CNC(=O)OCc3ccc4c(Br)cc(Br)c(O)c4n3)cc2)c1=O | False
COc1ccc(C(O)c2cc3c(N)c(C(=O)Nc4cccc(Cl)c4)sc3nc2C)cc1 (stereo not given) | False
CCCCCSB(SCCCCC)c1ccccc1 | False

Called result for "COc1ccc(-c2cc(-c3ccc(OC)cc3)nc(NCCCNc3ccnc4cc(Cl)ccc34)n2)cc1"
True

Called result for "N#Cc1c(-c2ccccc2)c(C#N)c2c(C#N)c(N)nn2c1N"
False

---

# System: SK-MEL-2 melanoma
# protocol-details: NCI-60 one-dose screen, 48 h
# applied-conditions: 10 µM unless noted
The panel holds about 83,000 compounds, 20% with a hit somewhere; the sample as a whole holds those more often. The source made the active and inactive calls. Rule for the calls: active = growth percent below 10; inactive = the rest.
Respond using exactly one of the listed classes: active, inactive

Past entries and their recorded results:
NC(=O)c1ccc(NC(=O)c2oc3ccccc3c2-c2cnn(-c3ccccc3)c2)cc1 | inactive
CCN(CC)c1ccc(/C=C\c2cc(C)c3cc(C)ccc3n2)cc1 | inactive
COc1ccc2c(c1)c(-c1ccc(-c3cn(C)c4ccc(OC)cc34)[nH]1)cn2C | inactive
CCOC(=O)C1=C(C)N=C2SC=C(c3ccccc3)N2[C@H]1c1cn[nH]c1-c1ccc(Cl)cc1 | inactive
COc1ccc(C/C(C)=C(\c2ccc(O)cc2)c2ccc(OCCN3CCCC3)cc2)cc1 | inactive

Called result for CC1COCC(C)N1C1=C(Cl)C(=O)c2ccccc2C1=O (centres undefined)
inactive

Called result for "Cc1cc(C)c(-c2c(O)c(Br)c(-c3c(C)cc(C)c(Br)c3C)c(O)c2Br)c(C)c1Br"
active

Called result for "Cc1cc(N2CCCCC2)nc(N2CCN(CC(=O)Nc3ccc4c(ccn4Cc4ccccc4)c3)CC2)n1"
inactive

Called result for "COc1cc(-c2nc(NC(C)=O)sc2-c2ccnc(NCCNS(=O)(=O)c3ccccc3)n2)ccc1Cl"
active
